test: Toxicity (DL50) in Swiss mice; format: in vivo, both male and female; details: mouse, in vivo, iv; I.v., Swiss mice male and female
Measured quantity: LD50 (mg/kg)

1) NCCC(O)(P(=O)([O-])O)P(=O)([O-])O.[Na+].[Na+]
45
2) O=P([O-])([O-])C(Cl)(Cl)P(=O)(O)O.[Na+].[Na+]
75
3) NCCCCCC(O)(P(=O)(O)O)P(=O)(O)O
85

---

assay: Toxicity (DL50) in Swiss mice; assay type: in vivo, both male and female; settings: mouse, in vivo, ip; I.p., Swiss mice male and female
Where a name gives a salt, the structure may show the parent alone.
Measured quantity: LD50 (mg/kg)

1. O=P([O-])([O-])C(Cl)(Cl)P(=O)(O)O.[Na+].[Na+]
780
2. NCCCCCC(O)(P(=O)(O)O)P(=O)(O)O
650
3. NCCC(O)(P(=O)([O-])O)P(=O)([O-])O.[Na+].[Na+]
190
4. CC(O)(P(=O)(O)O)P(=O)(O)O [EHDP, disodium salt]
250
